Measured Papp values are reported for all entries that follow.
assay: in vitro; details: human, Caco-2, Caco-2 (cm/sec)
*1 amine or outer side, *2 acyl side, *3 side chain or, on linkers, in order; H or OH if unused. Where a SMILES comes first, the peptide text is derived from it. Bridges are numbered along the chain shown (N, C = ends). [ ]: non-standard residue; d: D form. The star is where a group is joined. ξ: configuration not given here. Phe(3-OMe,4-CONHMs) = COc1cc(C[C@H](N)C(=O)O)ccc1C(=O)NS(C)(=O)=O; Phe(4-COOH) = N[C@@H](Cc1ccc(C(=O)O)cc1)C(=O)O; Tyr(3-F) = N[C@@H](Cc1ccc(O)c(F)c1)C(=O)O; X9 = O=C([C@@H](CN[*:1])COCCO)[*:2]; NMeF = CN[C@@H](Cc1ccccc1)C(=O)O; hPhe = N[C@@H](CCc1ccccc1)C(=O)O; CH2CONHtBu = CC(C)(C)NC(=O)C*; NMeL = CN[C@@H](CC(C)C)C(=O)O; NMeV = CN[C@H](C(=O)O)C(C)C; ξNMeL = CNC(CC(C)C)C(=O)O; NMeA = CN[C@@H](C)C(=O)O; Piperidide = C1CCN(*)CC1; NBuGly = CCCCNCC(=O)O; NPrGly = CCCNCC(=O)O; Propyl(3-OH) = OCCC*; N(OH)Me = CN(O)*; Sar = CNCC(=O)O; tBu = CC(C)(C)*
Provide the measurement as a number trailed by its unit.

>  <molecule>
CC(C)C[C@@H]1NC(=O)[C@H](CC(C)C)N(C)C(=O)[C@H](Cc2ccccc2)N(C)C(=O)CN(C)C(=O)[C@H]([C@@H](C)O)NC(=O)[C@H](CC(C)C)N(C)C(=O)[C@H](Cc2ccc(O)c(F)c2)NC(=O)[C@H](CC(C)C)N(C)C(=O)CN(C)C(=O)C[C@@H](C(=O)N2CCCCC2)NC(=O)[C@H](CC(C)C)N(C)C1=O [pd123] ([Sar][NMeL][Tyr(3-F)][NMeL]T[Sar][NMeF][NMeL]L[NMeL]D-Piperidide; lactam N-11)

>  <Papp>
0.44 ×10⁻⁶ cm/s

$$$$
>  <molecule>
CC(C)C[C@H]1C(=O)N(C)[C@@H](Cc2ccccc2)C(=O)N[C@@H](COC(C)(C)C)C(=O)N(C)[C@@H](C)C(=O)N[C@H](C(=O)N2CCCCC2)CC(=O)N(C)[C@@H](C)C(=O)N(C)[C@@H](Cc2ccccc2)C(=O)N[C@@H](CCc2ccccc2)C(=O)N(C)[C@@H](CC(C)C)C(=O)N[C@@H]([C@@H](C)O)C(=O)N(C)CC(=O)N1C [pd183] ([NMeA][NMeF][hPhe][NMeL]T[Sar][NMeL][NMeF]S(tBu)[NMeA]D-Piperidide; lactam N-11)

>  <Papp>
2.1 ×10⁻⁶ cm/s

$$$$
>  <molecule>
CCCCN1CC(=O)N(C)[C@@H](CC(C)C)C(=O)N[C@@H](COC(C)(C)C)C(=O)N(C)[C@@H](Cc2ccccc2)C(=O)N(C)[C@@H](CC(C)C)C(=O)N[C@H](C(=O)N2CCCCC2)CC(=O)N[C@H](C(C)C)C(=O)N(C)[C@@H](C(C)C)C(=O)N[C@@H](Cc2ccc(C(=O)NS(C)(=O)=O)c(OC)c2)C(=O)N(C)[C@@H](CC(C)C)C(=O)N[C@@H]([C@@H](C)O)C1=O [AP135] ([dV][NMeV][Phe(3-OMe,4-CONHMs)][NMeL]T[NBuGly][NMeL]S(tBu)[NMeF][NMeL]D-Piperidide; lactam N-11)

>  <Papp>
0.88 ×10⁻⁶ cm/s

$$$$
>  <molecule>
CC[C@H](C)[C@H]1C(=O)N[C@@H]([C@@H](C)O)C(=O)N(C)CC(=O)N(C)[C@@H](CC(C)C)C(=O)N[C@H](C(=O)N2CCCCC2)CC(=O)N(C)[C@@H](C)C(=O)NC(COc2cccc(Cl)c2)C(=O)N(C)[C@@H](CC(C)C)C(=O)N(C)[C@@H](Cc2ccccc2)C(=O)N[C@@H](C)C(=O)N(C)[C@@H](Cc2ccccc2)C(=O)N1C (stereo partly drawn)

>  <Papp>
1.8 ×10⁻⁶ cm/s

$$$$
>  <molecule>
CCCCN1CC(=O)N(C)[C@@H](CC(C)C)C(=O)N[C@@H](Cc2ccc(C(=O)N(C)O)cc2)C(=O)N(C)[C@@H](CC(C)C)C(=O)N(C)[C@@H](CC(C)C)C(=O)N[C@H](C(=O)N2CCCCC2)CC(=O)N[C@H](CC(C)C)C(=O)N(C)[C@@H](Cc2ccccc2)C(=O)N[C@@H](C(C)C)C(=O)N(C)C(CC(C)C)C(=O)N[C@@H]([C@@H](C)O)C1=O (stereo partly drawn) [AP249] ([dL][NMeF]V[ξNMeL]T[NBuGly][NMeL][Phe(4-COOH)](N(OH)Me)[NMeL][NMeL]D-Piperidide; lactam N-11)

>  <Papp>
0.04 ×10⁻⁶ cm/s

$$$$
>  <molecule>
CC(C)C[C@@H]1NC(=O)[C@H](CC(C)C)N(C)C(=O)C[C@@H](C(=O)N2CCCCC2)NC(=O)[C@H](CC(C)C)N(C)C(=O)CN(C)C(=O)[C@H]([C@@H](C)O)NC(=O)[C@H](CC(C)C)N(C)C(=O)[C@H](Cc2ccccc2)N(C)C(=O)[C@H](COCCCO)NC(=O)[C@H](Cc2ccccc2)N(C)C(=O)[C@H](CC(C)C)N(C)C1=O [AP94] ([NMeL]L[NMeL][NMeF]S(Propyl(3-OH))[NMeF][NMeL]T[Sar][NMeL]D-Piperidide; lactam N-11)

>  <Papp>
0.35 ×10⁻⁶ cm/s

$$$$
>  <molecule>
CCCCN1CC(=O)N(C)[C@@H](Cc2ccccc2)C(=O)NC[C@@H](COCCO)C(=O)N(C)[C@@H](CC(C)C)C(=O)N[C@@H]([C@@H](C)O)C(=O)N(CCC)CC(=O)N(C)[C@@H](Cc2ccccc2)C(=O)N(C)[C@@H](CC(C)C)C(=O)N[C@@H](CC(C)C)C(=O)N(C)[C@@H](CC(C)C)C(=O)N[C@H](C(=O)N2CCCCC2)CC1=O [AP133] ([NBuGly][NMeF][X9][NMeL]T[NPrGly][NMeF][NMeL]L[NMeL]D-Piperidide; lactam N-11)

>  <Papp>
1.8 ×10⁻⁶ cm/s

$$$$
>  <molecule>
CCCCN1CC(=O)N(C)[C@@H](CC(C)C)C(=O)N[C@@H](COC(C)(C)C)C(=O)N(C)[C@@H](Cc2ccccc2)C(=O)N(C)[C@@H](CC(C)C)C(=O)N[C@H](C(=O)N2CCCCC2)CC(=O)N[C@H](CC(C)C)C(=O)N(C)[C@@H](Cc2ccccc2)C(=O)N[C@@H](COCCCO)C(=O)N(C)[C@@H](CC(C)C)C(=O)N[C@@H]([C@@H](C)O)C1=O [AP89] ([dL][NMeF]S(Propyl(3-OH))[NMeL]T[NBuGly][NMeL]S(tBu)[NMeF][NMeL]D-Piperidide; lactam N-11)

>  <Papp>
0.12 ×10⁻⁶ cm/s

$$$$

// below: Papp requested for another molecule
I am curious: what Papp value has been reported for CCCCN1CC(=O)N(C)[C@@H](CC(C)C)C(=O)N[C@@H]([C@@H](C)CC)C(=O)N(C)[C@@H](Cc2ccccc2)C(=O)N[C@@H]([C@@H](C)O)C(=O)N(CCCC)CC(=O)N(C)[C@@H](CC(C)C)C(=O)N(C)[C@@H](Cc2ccccc2)C(=O)N[C@@H](COCC(=O)NC(C)(C)C)C(=O)N(C)[C@@H](C)C(=O)N[C@H](C(=O)N2CCCCC2)CC1=O [AP19] ([NBuGly][NMeL]I[NMeF]T[NBuGly][NMeL][NMeF]S(CH2CONHtBu)[NMeA]D-Piperidide; lactam N-11) ?
0.88 ×10⁻⁶ cm/s
